Origin of measurements: ChEMBL document CHEMBL1148475

# STUDY SYSTEM: Gonadotropin-releasing hormone receptor (Rattus norvegicus, UniProt P30969)
# ASSAY DETAILS: In vitro binding affinity to rat luteinizing hormone-releasing hormone (LHRH) receptor cloned in CHO cells
# Sequence (P30969 whole entry): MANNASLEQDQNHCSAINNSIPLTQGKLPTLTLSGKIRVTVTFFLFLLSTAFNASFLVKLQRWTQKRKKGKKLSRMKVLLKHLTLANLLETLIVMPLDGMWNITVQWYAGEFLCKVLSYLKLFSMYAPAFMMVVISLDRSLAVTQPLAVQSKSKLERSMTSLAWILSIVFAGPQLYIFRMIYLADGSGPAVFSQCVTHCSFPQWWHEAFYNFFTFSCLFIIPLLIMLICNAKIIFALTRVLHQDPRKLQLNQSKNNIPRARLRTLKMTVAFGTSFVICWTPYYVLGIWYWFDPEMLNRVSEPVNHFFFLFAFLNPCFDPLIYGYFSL
pKi: −log10 of the molar value.
MEASURE: pKi

Known results for compounds:
COMPOUND	VALUE MEASURED
CC[C@H]1OC(=O)[C@H](C)[C@@H](OC(=O)N2CCNC2=O)[C@H](C)[C@@H](OC2O[C@H](C)C[C@H](N(C)C(C)C)[C@H]2O)[C@@](C)(OC)C[C@@H](C)C(=O)[C@H](C)[C@H]2N(CCc3ccc(Cl)cc3)C(=O)O[C@]12C (some centres undefined)	6.66
CCC1CN(C(=O)O[C@H]2[C@H](C)[C@@H](OC3O[C@H](C)C[C@H](N(C)C(C)C)[C@H]3O)[C@@](C)(OC)C[C@@H](C)C(=O)[C@H](C)[C@H]3N(CCc4ccc(Cl)cc4)C(=O)O[C@]3(C)[C@@H](CC)OC(=O)[C@@H]2C)C(=O)O1 (some centres undefined)	7.74

[I] CC[C@H]1OC(=O)[C@H](C)[C@@H](OC(=O)CC(C)C)[C@H](C)[C@@H](OC2O[C@H](C)C[C@H](N(C)C(C)C)[C@H]2O)[C@@](C)(OC)C[C@@H](C)C(=O)[C@H](C)[C@H]2N(CCc3ccc(Cl)cc3)C(=O)O[C@]12C (some centres undefined)
[II] CC[C@H]1OC(=O)[C@H](C)[C@@H](OC(=O)N2CC(C)OC2=O)[C@H](C)[C@@H](OC2O[C@H](C)C[C@H](N(C)C(C)C)[C@H]2O)[C@@](C)(OC)C[C@@H](C)C(=O)[C@H](C)[C@H]2N(CCc3ccc(Cl)cc3)C(=O)O[C@]12C (some centres undefined)
Query: Between these two entries, I and II , state which has the higher pKi. Reply briefly: the label of your chosen item.
Reply: II
(II: 8.10, I: 6.85)

----------
# STUDY SYSTEM: Gonadotropin-releasing hormone receptor (Rattus norvegicus)
# ASSAY DETAILS: In vitro binding ability against Luteinizing hormone-releasing hormone release in rat pituitary cells
# Type: cell-based, Pituitary gland cell
# EXPERIMENTAL PARAMETERS: read-out: pA2 (converted)
# Sequence (P30969 whole entry, looked up): as the sequence (P30969 whole entry) above
Kb values, listed per item
The response must be a number in nM with no trailing unit.

MOLECULE	Kb (nM)
CC[C@H]1OC(=O)[C@H](C)[C@@H](OC(=O)N2C(=O)OC[C@@H]2C)[C@H](C)[C@@H](OC2O[C@H](C)C[C@H](N(C)C(C)C)[C@H]2O)[C@@](C)(OC)C[C@@H](C)C(=O)[C@H](C)[C@H]2N(CCc3ccc(Cl)c(Cl)c3)C(=O)O[C@]12C (some centres undefined)	1.78

Query: So what's the measured Kb for this one? CC[C@H]1OC(=O)[C@H](C)[C@@H](OC(=O)N2C(=O)OC[C@@H]2C)[C@H](C)[C@@H](OC2O[C@H](C)C[C@H](N(C)C3CCCC3)[C@H]2O)[C@@](C)(OC)C[C@@H](C)C(=O)[C@H](C)[C@H]2N(CCc3ccc(Cl)c(Cl)c3)C(=O)O[C@]12C (some centres undefined)
Reply: 0.135

Query: So what's the measured Kb for this one? CC[C@H]1OC(=O)[C@H](C)[C@@H](OC(=O)N2C(=O)OC[C@@H]2C)[C@H](C)[C@@H](O[C@@H]2O[C@H](C)C[C@H](N(C)CC3CC3)[C@H]2O)[C@@](C)(OC)C[C@@H](C)C(=O)[C@H](C)[C@H]2N(CCc3ccc(Cl)c(Cl)c3)C(=O)O[C@]12C
Reply: 1.74

Query: So what's the measured Kb for this one? CC[C@H]1OC(=O)[C@H](C)[C@@H](OC(=O)N2C(=O)OC[C@@H]2C)[C@H](C)[C@@H](OC2O[C@H](C)C[C@H](N(C)CC3CC3)[C@H]2O)[C@@](C)(OC)C[C@@H](C)C(=O)[C@H](C)[C@H]2N(CCc3ccc(F)c(Cl)c3)C(=O)O[C@]12C (some centres undefined)
Reply: 0.479
